System: Bacteroides fragilis Leo JA 2
ASSAY_NAME: Antibacterial activity, concentration required for 50% inhibition
Assay type: cell-based
COND: LEOJA2
RECORDED_ENDPOINT: IC50 (µg/mL)

SMILES_INPUT	MEASURED_NUMBER
CC(=O)S[C@H]1C[C@@]2(C)[C@@H](C[C@@H](O)[C@H]3[C@@]4(C)CC[C@H](Br)[C@@H](C)[C@@H]4CC[C@@]32C)/C1=C(\CCC=C(C)C)C(=O)O	3.2
CC(=O)S[C@H]1C[C@@]2(C)[C@@H](CC(=O)[C@H]3[C@@]4(C)CC[C@@H](O)[C@@H](C)[C@@H]4CC[C@@]32C)/C1=C(\CCC=C(C)C)C(=O)O	2
CC(=O)S[C@H]1C[C@@]2(C)[C@@H](C[C@@H](O)[C@H]3[C@@]4(C)CC[C@H](N=[N+]=[N-])[C@@H](C)[C@@H]4CC[C@@]32C)/C1=C(\CCCC(C)C)C(=O)O	1.6
CC(=O)S[C@H]1C[C@@]2(C)[C@@H](C[C@@H](O)[C@H]3[C@@]4(C)CC[C@H](Br)[C@@H](C)[C@@H]4CC[C@@]32C)/C1=C(\CCCC(C)C)C(=O)O	2
CC(=O)S[C@H]1C[C@@]2(C)[C@@H](C[C@@H](O)[C@H]3[C@@]4(C)CC[C@H](Cl)[C@@H](C)[C@@H]4CC[C@@]32C)/C1=C(\CCC=C(C)C)C(=O)O	1.3
CC(=O)S[C@H]1C[C@@]2(C)[C@@H](CC(=O)[C@H]3[C@@]4(C)CC[C@@H](O)[C@@H](C)[C@@H]4CC[C@@]32C)/C1=C(\CCCC(C)C)C(=O)O	2
CC(=O)S[C@H]1C[C@@]2(C)[C@@H](C[C@@H](O)[C@H]3[C@@]4(C)CC[C@@H](O)[C@@H](C)[C@@H]4CC[C@@]32C)/C1=C(\CCC=C(C)C)C(=O)O	0.79
CC(=O)O[C@H]1C[C@@]2(C)[C@@H](C[C@@H](O)[C@H]3[C@@]4(C)CC[C@@H](O)[C@@H](C)[C@@H]4CC[C@@]32C)/C1=C(\CCC=C(C)C)C(=O)O	1.6
CC(=O)S[C@H]1C[C@@]2(C)[C@@H](C[C@@H](O)[C@H]3[C@@]4(C)CC[C@@H](O)[C@@H](C)[C@@H]4CC[C@@]32C)/C1=C(\CCCC(C)C)C(=O)O	0.5
CC(=O)S[C@H]1C[C@@]2(C)[C@@H](C[C@@H](O)[C@H]3[C@@]4(C)CC[C@@H](N=[N+]=[N-])[C@@H](C)[C@@H]4CC[C@@]32C)/C1=C(\CCCC(C)C)C(=O)O	5
CC(C)CCC/C(C(=O)O)=C1/[C@@H](SC(=O)c2ccccc2)C[C@@]2(C)[C@H]1C[C@@H](O)[C@H]1[C@@]3(C)CC[C@@H](O)[C@@H](C)[C@@H]3CC[C@@]12C	1.6
